Record form. Attribute: Kd. Fill in for each entry.
measured_on: T1, TGFβ1 (R&D Systems)
T1 construct: also called TGFB1
test_protocol: SPR full titration
One number for each entry, in nM.

Solved cases below.
affinity matured HcLb 264 (antibody, V domains shown, full IgG; also called canHcLb/55SW/100DY/30IM/31TK/28TI + canHcLb/237ND/242TS) VH: EVQLVQSGAEVKKPGASVKVSCKTSGYIFMKYWMNWVRQAPGAGLDWMGQIFPAWGSTNYNEMFEGRVTLTADTSTSTAYMELSSLRAGDIAVYYCARGYGNYALDAMDYWGQGTLVTVSS VL: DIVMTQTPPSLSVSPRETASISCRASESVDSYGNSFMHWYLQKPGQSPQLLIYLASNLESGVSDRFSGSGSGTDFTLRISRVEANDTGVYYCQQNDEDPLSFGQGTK : 2.69
affinity matured HcLb 260 (antibody, V domains shown, full IgG; constant regions not restated) VH: SEVQLVQSGAEVKKPGASVKVSCKTSGYTFITYWMNWVRQAPGAGLDWMGQIFPAWGVTNYNEMFEGRVTLTADTSTSTAYMELSSLRAGDIAVYYCARGYGNYALDAMDYWGQGTLVTVSS VL: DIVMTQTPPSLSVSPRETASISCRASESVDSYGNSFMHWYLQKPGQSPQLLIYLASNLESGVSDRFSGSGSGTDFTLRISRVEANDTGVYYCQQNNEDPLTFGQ : 3.79

From here, focus on the item given below.
Prompt: Specify reported Kd for the binder shown: affinity matured HcLb 237 (antibody, V domains shown, full IgG; also called canHcLb/55SW/100DY/57/SV + canHcLb/237ND/242TS) VH: EVQLVQSGAEVKKPGASVKVSCKTSGYTFITYWMNWVRQAPGAGLDWMGQIFPAWGVTNYNEMFEGRVTLTADTSTSTAYMELSSLRAGDIAVYYCARGYGNYALDAMDYWGQGTLVTVSS VL: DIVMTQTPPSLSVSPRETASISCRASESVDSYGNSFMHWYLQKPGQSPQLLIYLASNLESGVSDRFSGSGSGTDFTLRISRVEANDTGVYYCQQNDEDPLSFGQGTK
Response: 2.27
